Listing: melting point of selected compounds
Structures can show the parent of a compound that is named as a salt.

get_value(item= CCNCCCc1ccc2c(NC(=O)CC3CCCCC3)c(C)ccc2n1 (as salt: hydrochloride) [Example 15, Dihydrochloride] , readout=melting point) returns 231 to 234 °C

* * *

Where a name gives a salt, the structure may show the parent alone.
assay metric: melting point

O=C(CC1CCCCC1)Nc1c(Cl)ccc2nc(N3CC[C@@H](NCCO)C3)ccc12; 197 to 199 °C
O=C(NCCC1CCCCC1)c1c(Cl)ccc2nc(N3CCC(c4nnn[nH]4)CC3)ccc12; 252 to 255 °C
O=C(CC1CCCCC1)Nc1c(Cl)ccc2nc(N3CC[C@H](NCCc4nnn[nH]4)C3)ccc12; 220 to 221 °C
O=C(CC1CCCCC1)Nc1c(Cl)ccc2nc(N3CCC(NS(=O)(=O)C(F)(F)F)CC3)ccc12; 187 to 189 °C
CCNCCCc1ccc2c(NC(=O)CC3CCCCC3)c(Cl)ccc2n1 (as salt: hydrochloride); 152 to 155 °C

Pending molecule:
get_value(item= O=C(NCC1CCCCC1)c1c(Cl)ccc2nc(N3CC[C@H](NCCO)C3)ccc12 (as salt: hydrochloride) , readout=melting point) returns 211 to 220 °C
